Value source: patent US7947854B2

Measured Cytosolic LPL activity, percentage of the control, listed per entry for reference.
# Test system: cytosolic phospholipase B (LPL/LPTA activities)
# EXPERIMENT: Radiometric assay, cytosolic LPL/LPTA activities
# Type: biochemical, Cryptococcus neoformans H99
# MEASUREMENT_SETUP: pH 7.0; modifier 10 mM (Triton X-100 0.1% w/v)
Respond with the bare value in %.

O=C(O)CN(CCOCCOCCN(CC(=O)O)CC(=O)O)CC(=O)O [EGTA, ethyleneglycoldiamine tetraacetic acid] : 26

Enquiry: System cytosolic phospholipase B (LPL/LPTA activities). Read-out Cytosolic LPL activity, percentage of the control. Item [Ca+2] [Calcium] . Report value.
Return: 236

Enquiry: System cytosolic phospholipase B (LPL/LPTA activities). Read-out Cytosolic LPL activity, percentage of the control. Item [Cl][Fe]([Cl])[Cl] [FeCl3] . Report value.
Return: 22

Enquiry: System cytosolic phospholipase B (LPL/LPTA activities). Read-out Cytosolic LPL activity, percentage of the control. Item [Mg+2] [Magnesium] . Report value.
Return: 96

Enquiry: System cytosolic phospholipase B (LPL/LPTA activities). Read-out Cytosolic LPL activity, percentage of the control. Item O=C(O)CN(CCN(CC(=O)O)CC(=O)O)CC(=O)O [EDTA, ethylenediaminetetraacetic acid] . Report value.
Return: 30
